So I've got a bunch of molecules here, and I need their TGI values.
# Tested on: OVCAR-5 ovarian
# assay comment: NCI tumour cell line growth inhibition, 48 h

QUERY: Request the reported TGI associated with "Cc1[nH]c2ccccc2c1/C=N/NC(=O)c1cccc(I)c1"
RESULT: 70.4 µM

QUERY: Endpoint output: TGI of "CC(=O)O[C@H]1C[C@@H](OC(C)=O)[C@@](C)(O)[C@@H]2[C@@H](OC(C)=O)[C@@]3(O)[C@H](/C=C(/CO)[C@H]4O[C@H]4[C@@H](OC(C)=O)[C@@]12C)OC(=O)[C@@H]3C" . Value?
RESULT: > 25 µM

QUERY: Requested read-out: TGI. Entry: "O=c1[nH]c2nccn2c2c1SCCN2"
RESULT: > 100 µM

QUERY: Entry under review: "O=C(Nc1ccccc1-c1nn(CN2CCNCC2)c(=S)n(CN2CCNCC2)c1=O)C(F)(F)F" . Reported TGI?
RESULT: 45 µM

QUERY: Which TGI is listed for "Cc1cc(OCCOCCC(F)(F)P(=O)(O)O)ccc1CCc1cnc2c(N)nc3cc(CCC(=O)O)ccc3c2c1" ?
RESULT: > 100 µM

QUERY: I would be grateful if you could share the reported TGI for "Cc1cc(C)c(C(=O)O)c(SSc2cc(C)cc(C)c2C(=O)O)c1" .
RESULT: > 100 µM

QUERY: Return reported TGI; argument: CCCCc1ccc(Nc2nc(Cl)c3ccn(C4CC(Oc5ccc(C)cc5)C(COc5ccc(C)cc5)O4)c3n2)cc1 (centres undefined)
RESULT: > 31.6 µM

QUERY: Form field: reported TGI of "NCCNC(=O)c1cccc2cc3ccccc3nc12"
RESULT: 14.6 µM

QUERY: Consider the molecule COC(=O)C(=O)C(C(=O)C(=O)Nc1ccccc1OC)c1nc2ccc([N+](=O)[O-])cc2[nH]c1=O (centres undefined) and give its measured TGI.
RESULT: > 100 µM

QUERY: Please give the measured TGI for this molecule: COC(=O)C(Cc1ccc(N(C)C)cc1)(NC(=O)c1ccccc1)P(=O)(OC)OC (centres undefined)
RESULT: > 100 µM

QUERY: Return reported TGI; argument: "Cn1c2ccccc2c2cc(N3CCCC3)c3c(c21)C(=O)N(c1ccccc1)C3=O"
RESULT: > 100 µM

QUERY: // returns reported TGI for input "CCCCSC1=N/C(=C\c2ccc(N(C)C)cc2)C(=O)N1"
RESULT: > 100 µM

QUERY: Given "C[C@H]1COCCN1c1cc(C2(S(=O)(=O)C3CC3)CC2)nc(-c2ccc(NC(=S)NCCO)cc2)n1" , state its recorded TGI.
RESULT: > 100 µM

QUERY: Name the reported TGI value associated with the molecule "CN(O)C(=O)CCCC(=O)NCC(C)(C)CNC(=O)CCCC(=O)N(C)O"
RESULT: > 100 µM

QUERY: For the molecule shown here, C#CC1(O)CCC2[C@@H]3CCc4cc(Oc5nc(F)nc(-c6c7ccccc7c(SCC)n6CCC)n5)ccc4C3CC[C@@]21C (some centres undefined) , give the reported TGI.
RESULT: > 100 µM

QUERY: TGI for O=C(OC1CN2CCC1CC2)N(c1ccccc1)c1ccccc1 (centres undefined) ?
RESULT: > 100 µM

QUERY: Recorded TGI of COC1=C(C)C(=O)C2=C(C1=O)C1C3CC4=C(C(=O)C(OC)=C(C)C4=O)C(CNC(=O)C(C)O)N3C(C#N)C(C2)N1C (centres undefined) , please.
RESULT: 0.0888 µM

QUERY: Can you look up the measured TGI of COC(=O)c1cn(CC(O)CCl)nn1 (centres undefined) for me?
RESULT: > 100 µM

QUERY: # input molecule: CNC(=O)SCC(NC(=O)CCC(N)C(=O)O)C(=O)NCC(=O)O (centres undefined) ; wanted: its TGI
RESULT: > 100 µM

* * *

# Tested on: HOP-62 NSCLC
# assay comment: NCI tumour cell line growth inhibition, 48 h
property label: GI50

QUERY: State the recorded GI50 for this entry: "COC(=O)CCNc1c2ccccc2nc2cccc([N+](=O)[O-])c12"
RESULT: 1.5 nM

QUERY: Entry "O=C1C=Cc2c1ccc1ccccc21" : reported GI50 = ?
RESULT: 14300 nM

QUERY: Dear colleague, I am looking for the recorded GI50 of the following compound: "Cc1cc(OCCOCCC(F)(F)P(=O)(O)O)ccc1CCc1cnc2c(N)nc3cc(CCC(=O)O)ccc3c2c1"
RESULT: > 100000 nM

QUERY: Please report the recorded GI50 for CN(C)CCCC1(c2ccc(F)cc2)OCc2cc(-c3cc4ccccc4s3)ccc21 (stereo not given) .
RESULT: 1600 nM

QUERY: Which GI50 is reported for this compound? "CCCCCCCCCCCCCC[n+]1ccc(C(N)=O)cc1"
RESULT: 1510 nM

QUERY: Fill in: GI50 of "C[n+]1c2ccccc2nc2ccccc21" is ___
RESULT: 3660 nM

QUERY: Consider the compound shown here: "O=C(c1ccccc1)c1c(C(F)(F)F)n([O-])c2cc(C(F)(F)F)ccc2[n+]1=O" What is its recorded GI50?
RESULT: 1830 nM

QUERY: Which GI50 value is on record for "CC(C)c1cccc(O)c(=O)c1" ?
RESULT: 5.57 µg/mL

QUERY: Dear colleague, I am looking for the recorded GI50 of the following compound: CC([C@H]1CC=C2C3CCC4=C[C@@H](N(C)C)CC[C@]4(C)C3CC[C@@]21C)N(C)C (stereo not given in full)
RESULT: 1800 nM

QUERY: If you can, please state the reported GI50 value of "CCCCCC[C@@H](C)NC(=O)c1ccc(Nc2nc3ccccc3c3occc23)cc1" .
RESULT: 3280 nM

QUERY: Give its GI50 value. Item: "CCCCCCCCCCCCCCCCOP(=O)([O-])OCC[N+](C)(C)C"
RESULT: 1380 nM

QUERY: What value of GI50 has been reported for the following compound? "Clc1ccc2nc(CI)c(CI)nc2c1"
RESULT: 28700 nM

QUERY: Please give the measured GI50 for this compound: "CO[C@H]1C[C@](C)(O)Cc2cc3c(c(O)c21)C(=O)c1c(O)cc2c(c1C3=O)O[C@@H]1O[C@@]2(C)[C@H](O)[C@@H](N(C)C)[C@@H]1O"
RESULT: 480 nM

QUERY: I would be grateful if you could share the reported GI50 for "COc1ccc(NC(=O)c2sc3nc(C)c(C(=O)/C=C/c4cccc(OC)c4)cc3c2N)cc1" .
RESULT: 1290 nM

QUERY: Give its GI50 value. Item: "N#C/C(=N\Nc1ccccc1)C(=O)Nc1cc(-c2ccccc2)nn1-c1ccccc1"
RESULT: 2840 nM

* * *

Could you please report measured TGI for the items listed next?
# Tested on: SR leukemia
# assay comment: NCI tumour cell line growth inhibition, 48 h

QUERY: Hello, I am looking for reported TGI with SR leukemia for "O=[N+]([O-])/C=C(\CS(=O)(=O)c1ccccc1)c1ccc2c(c1)OCO2" . Could you help?
RESULT: > 100 µM

QUERY: Under SR leukemia: TGI value of "Cc1ccc(S(=O)(=O)c2ccc(C)cc2[N+](=O)[O-])cc1" ?
RESULT: > 100 µM

QUERY: Give the reported TGI for "C=C(C)[C@H]1C2=CC(C)=C(O2)[C@@H](O)[C@H](C(=C)C)CCC2=C[C@H]1OC2=O" (system: SR leukemia).
RESULT: > 100 µM

* * *

# Test system: HOP-92 NSCLC
# assay comment: NCI tumour cell line growth inhibition, 48 h
property label: TGI

QUERY: Return reported TGI; argument: COc1ccc(NC(C(N)=O)c2cc3cc(Br)ccc3nc2Cl)cc1 (centres undefined)
RESULT: 99.7 µM

QUERY: Value lookup for TGI; key = "Cc1ccc(N=Nc2c(O)ccc3cc(S(=O)(=O)O)ccc23)cc1"
RESULT: > 100 µM

QUERY: What value of TGI has been recorded for this entry: CCCCCCCC/C=C1\CCC(CN2CCOCC2)C1=O (centres undefined)
RESULT: 33 µM

QUERY: Any idea what its TGI is? The molecule is COC(=O)C(Cc1ccc(N(C)C)cc1)(NC(=O)c1ccccc1)P(=O)(OC)OC (centres undefined)
RESULT: > 100 µM

* * *

# System: HOP-92 NSCLC
# assay comment: NCI tumour cell line growth inhibition, 48 h
Provide the reported TGI of each item.

QUERY: May I ask what TGI has been recorded for COC1=C(C)C(=O)C2=C(C1=O)C1C3CC4=C(C(=O)C(OC)=C(C)C4=O)C(CNC(=O)C(C)O)N3C(C#N)C(C2)N1C (centres undefined) ?
RESULT: < 0.01 µM

QUERY: Quick check: TGI of "Cc1ccc2c(c1)C(=O)c1c-2c(OCCCN(C)C)nc2ccccc12" ?
RESULT: 11.6 µM

QUERY: Quick check: TGI of COC(=O)C(Cc1c[nH]c2ccccc12)NP(=O)(O)OCC1OC(n2cc(Br)c(=O)[nH]c2=O)CC1O (centres undefined) ?
RESULT: > 100 µM

QUERY: Sample CC1CC(C)C2OC2(C)C[C@H](C)C(=O)NC(C)C(=O)N(C)[C@H](Cc2c(Br)[nH]c3ccccc23)C(=O)N[C@@H](c2ccc(O)cc2)CC(=O)O1 (some centres undefined) — what was its TGI?
RESULT: 0.638 µM

QUERY: Requested field: TGI. Item: "O=[N+]([O-])c1cc2ccc(N(CCO)CCO)nc2nc1N(CCO)CCO"
RESULT: > 100 µM

QUERY: Please give the measured TGI for this compound: "NCCNC(=O)c1cccc2cc3ccccc3nc12"
RESULT: > 100 µM

QUERY: TGI for "CC(C)(C)NC(=O)/C(=C\Sc1ccccc1)c1ccccc1" ?
RESULT: > 42.4 µM

QUERY: So what's the measured TGI for this one? "CCC(CC)(CO)CNc1cc(Cl)nc(N)n1"
RESULT: > 100 µM

QUERY: Looking for the measured TGI of "c1ccc(Nc2nn3c(CCCCCCCCc4nnc5sc(Nc6ccccc6)nn45)nnc3s2)cc1" , can you help?
RESULT: > 100 µM
